# study.target: 5-HT7R (Homo sapiens)
# Construct: expressed in transfected cells; host or cells: HEK293
# Sequence (P34969 1-432): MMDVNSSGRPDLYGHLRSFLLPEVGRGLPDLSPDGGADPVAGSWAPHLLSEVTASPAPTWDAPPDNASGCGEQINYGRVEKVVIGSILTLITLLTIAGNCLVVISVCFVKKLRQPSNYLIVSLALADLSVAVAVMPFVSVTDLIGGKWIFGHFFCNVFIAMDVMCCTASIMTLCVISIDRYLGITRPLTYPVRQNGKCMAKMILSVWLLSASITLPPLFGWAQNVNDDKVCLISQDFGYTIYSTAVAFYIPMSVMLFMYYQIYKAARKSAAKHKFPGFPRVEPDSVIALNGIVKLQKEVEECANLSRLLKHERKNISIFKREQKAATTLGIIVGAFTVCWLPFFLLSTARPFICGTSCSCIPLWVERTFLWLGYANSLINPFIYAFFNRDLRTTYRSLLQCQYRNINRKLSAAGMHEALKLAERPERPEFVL
# method.notes: 5-HT7 radioligand binding assay
# applied.conditions: human recombinant (HEK293 cells), [3H]-5-CT
Kindly return Y if reported pKi 5-HT7R is no lower than 7; return N if it is lower.

Check this molecule for pKi 5-HT7R at or above 7: CCn1cncc1-c1c[nH]c2cccc(Br)c12
N

Kindly determine if pKi 5-HT7R recorded for COc1ccc2[nH]cc(-c3cncn3C)c2c1 is above or exactly 7.
Y

Does pKi 5-HT7R meet or surpass 7 for CCn1cncc1-c1c[nH]c2ccc(I)cc12 ?
Y

Given the entry CCn1cncc1-c1c[nH]c2ccc(Br)c(F)c12 , answer whether its pKi 5-HT7R meets or surpasses 7.
Y

# bool: pKi 5-HT7R of CCn1cncc1-c1c[nH]c2c(F)cc(I)cc12 >= 7
Y

Tell me whether pKi 5-HT7R is at least 7 here: CCn1cncc1-c1c[nH]c2ccc(C#N)cc12
N

Where do these numbers come from? They come from patent US10844046B2.
